Kindly state log10(ED50) for each of the entries shown.
tested on: Mus musculus; experiment: Antiepileptic potency in the maximal electroshock seizure test. Compound was administered orally to male NMRI mice; assay type: functional; conditions: po
Base-10 log of ED50, unit µmol/kg.

Item under review: CC1CC(c2ccccc2)(c2ccccc2)C(=O)N1C (stereo unspecified) . Reported log10(ED50)? 3.58

Item under review: CN1C(=O)CC(c2ccccc2)(c2ccccc2)C1=O . Reported log10(ED50)? 2.55

Item under review: O=C1CC(c2ccccc2)(c2ccccc2)C(=O)N1 . Reported log10(ED50)? 2.03

Item under review: O=C1NC(=O)C(c2ccccc2)(c2ccccc2)N1 . Reported log10(ED50)? 1.45

Item under review: CN1C(=O)NC(c2ccccc2)(c2ccccc2)C1=O . Reported log10(ED50)? 2.17

Item under review: O=C1NCNC1(c1ccccc1)c1ccccc1 . Reported log10(ED50)? 2.11
